B1: TPR t1 (parent)
chain: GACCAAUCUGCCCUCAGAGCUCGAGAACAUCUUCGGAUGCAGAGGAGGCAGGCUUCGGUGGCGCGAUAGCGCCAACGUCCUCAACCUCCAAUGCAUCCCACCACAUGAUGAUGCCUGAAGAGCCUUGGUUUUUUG

- Variants of: B1
- assay.overview: polymerase ribozyme fitness, log enrichment relative to wild type (log ratio); higher = more active; in vitro selection for triplet polymerase activity
variants and their reported polymerase ribozyme fitness (log ratio)

[[record]]
mutant_code = "C8G A29U U55G C56A C94U C124A"
measurement_label = "polymerase ribozyme fitness (log ratio)"
result = -1.05

[[record]]
mutant_code = "C49U G110A"
measurement_label = "polymerase ribozyme fitness (log ratio)"
result = -1.45


If you can, please state the reported polymerase ribozyme fitness (log ratio) value of G10A C15A C94A .
-3.08

If you can, please state the reported polymerase ribozyme fitness (log ratio) value of C22G A50U U96C A119G .
-3.9

If you can, please state the reported polymerase ribozyme fitness (log ratio) value of C15U G52A G93A A95G .
-2.44

If you can, please state the reported polymerase ribozyme fitness (log ratio) value of C12U U14A G110U G113A U130C .
-4.17

If you can, please state the reported polymerase ribozyme fitness (log ratio) value of G36U A68G .
-3.62

If you can, please state the reported polymerase ribozyme fitness (log ratio) value of A2C C56G .
-1.9

If you can, please state the reported polymerase ribozyme fitness (log ratio) value of A29U U92G U109A C115U U130A .
-5.3
